Tested on: Fibroblast
Assay: Multiplex assay against human fibroblast
Format: toxicity, cell-based
Settings: 24 h, 1 µM, compound concentration 1 uM, replicate 1
Reported Population Pyknosed Nuclei (%) by item:

[
  {
    "MOLECULE": "COc1cc(Nc2ccnc3ccc(Br)cc23)cc(OC)c1OC",
    "MEASURE_UNIT": "%",
    "Population Pyknosed Nuclei (%)": 15
  },
  {
    "MOLECULE": "CCOc1ccn(-c2ccc(F)cc2)c(=O)c1C(=O)Nc1ccc(Oc2ccnc(N)c2Cl)c(F)c1",
    "MEASURE_UNIT": "%",
    "Population Pyknosed Nuclei (%)": 10
  },
  {
    "MOLECULE": "Cc1c(Nc2ccc(S(=O)(=O)N3CCN(C)CC3)cc2F)nc2ccc(-c3cnn(C4CC4)c3)cn2c1=O",
    "MEASURE_UNIT": "%",
    "Population Pyknosed Nuclei (%)": 13
  },
  {
    "MOLECULE": "CCCCCNC(=N)N/N=C/c1c[nH]c2ccc(OC)cc12.O=C(O)/C=C\\C(=O)O [TEGASEROD MALEATE]",
    "MEASURE_UNIT": "%",
    "Population Pyknosed Nuclei (%)": 18
  },
  {
    "MOLECULE": "Cl.Cn1c2c(c3ccc(Cl)c(Cl)c31)C(C#N)C1(CCNCC1)NC2=O (stereo not drawn)",
    "MEASURE_UNIT": "%",
    "Population Pyknosed Nuclei (%)": 10
  },
  {
    "MOLECULE": "Cc1ccc(NC(=O)Nc2cc(C(F)(F)F)ccc2F)cc1Nc1ccc2c(c1)NC(=O)/C2=C\\c1ccc[nH]1",
    "MEASURE_UNIT": "%",
    "Population Pyknosed Nuclei (%)": 27
  },
  {
    "MOLECULE": "N#CCNC(=O)c1ccc(-c2ccnc(Nc3ccc(N4CCOCC4)cc3)n2)cc1",
    "MEASURE_UNIT": "%",
    "Population Pyknosed Nuclei (%)": 20
  }
]
